Test system: HCT-15 colon
EXPERIMENT_DESCRIPTION: NCI tumour cell line growth inhibition, 48 h
RECORDED_ENDPOINT: TGI

Solved cases (4 shown):
compound=COc1ccc(/C=C/C(=O)c2sc(-c3cccnc3)nc2C)cc1 result="> 100 µM"
compound=COC(=O)c1ccc2c(c1)sc1nc(-c3ccc(OC)cc3)cn12 result="> 100 µM"
compound="CC(C)Cc1ccc(C(C)C(=O)NCc2ccc(Cn3c(=O)sn(CCCI)c3=O)cc2)cc1 (stereo unspecified)" result="0.738 µM"
compound=COc1cc(CNc2cnc3ccc(N)cc3n2)cc(OC)c1OC result="> 100 µM"

What value of TGI has been recorded for this entry: CN(C)CCNC(=O)c1ccc2oc3cc4ccccc4c(=O)n3c2c1 > 100 µM

What value of TGI has been recorded for this entry: Cc1cn(C2CCN(CC3COC(C)(C)O3)O2)c(=O)[nH]c1=O (stereo unspecified) > 100 µM

What value of TGI has been recorded for this entry: O=[N+]([O-])c1oc2ccc3ccccc3c2c1CCO 34.2 µM

====

System: SNB-19 CNS
EXPERIMENT_DESCRIPTION: NCI tumour cell line growth inhibition, 48 h
Items are presented alongside their recorded GI50.

What value of GI50 has been recorded for this entry: COc1cc(C2CC(=O)Nc3c2c(C)nn3-c2nc3ccccc3[nH]2)cc(OC)c1O (configuration not stated) 3.5 µM

What value of GI50 has been recorded for this entry: CN(C)c1ccccc1[CH2][Ga]([Cl])[CH2]c1ccccc1N(C)C 1.44 µM

What value of GI50 has been recorded for this entry: CN(C)Cc1c(C(=O)NCCOc2ccc(C(=O)NO)cc2)oc2ccccc12 0.453 µM

What value of GI50 has been recorded for this entry: NCCSC(c1ccccc1)(c1ccccc1)c1ccccc1 5.36 µM

What value of GI50 has been recorded for this entry: O=C1NC(=NCCc2ccccn2)S/C1=C\c1ccc2ncccc2c1 11.1 µM

What value of GI50 has been recorded for this entry: COc1ccc(Cn2cc3c(c2-c2cc(OC)c(OC)c(OC)c2)CCc2c(CO)noc2-3)cc1 0.43 µM

What value of GI50 has been recorded for this entry: CC(C)C(=O)c1c(C(F)(F)F)n([O-])c2ccccc2[n+]1=O 3.51 µM

====

System: PC-3 prostate
EXPERIMENT_DESCRIPTION: NCI tumour cell line growth inhibition, 48 h
RECORDED_ENDPOINT: TGI

Solved cases (3 shown):
molecule=CC(=O)OCCCC#CC#Cc1cccc(=O)o1 result="44.4 µM"
molecule=O=C1/C(=C/c2ccc(O)c(O)c2)CC/C1=C\c1ccc(O)c(O)c1 result="> 100 µM"
molecule=COc1ccc2c(c1OC)C(=O)N/C2=C\c1c(CCN(C)C)cc2c(c1OC)OCO2 result="> 100 µM"

Now examine the next entry.
What value of TGI has been recorded for this entry: COC(=O)/N=[N+](\[O-])C(c1ccccc1)c1ccccc1 > 100 µM

====

Tested on: NCI-H226 lung
EXPERIMENT_DESCRIPTION: NCI tumour cell line growth inhibition, 48 h
Items are presented alongside their recorded TGI.

Solved cases (2 shown):
compound="NC(CCCCNCc1ccccc1)C(=O)O (stereo not given)" tested_target="NCI-H226 lung" recorded_endpoint=TGI result="> 100 µM"
compound="COc1cc(C2OC[C@@H]3C(=O)OC[C@H]23)cc(O)c1OC (stereo not given in full)" tested_target="NCI-H226 lung" recorded_endpoint=TGI result="> 100 µM"

What value of TGI has been recorded for this entry: COc1ccc2c(c1)[n+]([O-])c(/C(C)=N/NC(=O)c1ccccc1O)c(C)[n+]2[O-] > 100 µM

What value of TGI has been recorded for this entry: COC12OCCN(C)C1=CC(=O)C1(C)N=NCC12 (stereo not given) > 100 µM

What value of TGI has been recorded for this entry: O=C1C(c2ccccc2)=C(c2ccccc2)C(c2ccc(Sc3ccc(C4=C(c5ccccc5)C(=O)C(c5ccccc5)=C4c4ccccc4)cc3)cc2)=C1c1ccccc1 > 100 µM

What value of TGI has been recorded for this entry: O=c1[nH]nc(Cc2ccccc2)n1/N=C/c1ccc([N+](=O)[O-])cc1 > 100 µM

What value of TGI has been recorded for this entry: Cc1cc2c(cc1Cl)SC(c1ccccc1O)NS2(=O)=O (stereo not given) > 100 µM

Just for reference, PubChem BioAssay (NCI) is where these values come from.
